biological target: Cytochrome P450 11B1, mitochondrial (Homo sapiens); test: Inhibition of human CYP11B1 expressed in human renal leiomyoblastoma cells harboring FDXR/FDX using 1-deoxycortisol as substrate by HTRF assay
Sequence (P15538 whole entry): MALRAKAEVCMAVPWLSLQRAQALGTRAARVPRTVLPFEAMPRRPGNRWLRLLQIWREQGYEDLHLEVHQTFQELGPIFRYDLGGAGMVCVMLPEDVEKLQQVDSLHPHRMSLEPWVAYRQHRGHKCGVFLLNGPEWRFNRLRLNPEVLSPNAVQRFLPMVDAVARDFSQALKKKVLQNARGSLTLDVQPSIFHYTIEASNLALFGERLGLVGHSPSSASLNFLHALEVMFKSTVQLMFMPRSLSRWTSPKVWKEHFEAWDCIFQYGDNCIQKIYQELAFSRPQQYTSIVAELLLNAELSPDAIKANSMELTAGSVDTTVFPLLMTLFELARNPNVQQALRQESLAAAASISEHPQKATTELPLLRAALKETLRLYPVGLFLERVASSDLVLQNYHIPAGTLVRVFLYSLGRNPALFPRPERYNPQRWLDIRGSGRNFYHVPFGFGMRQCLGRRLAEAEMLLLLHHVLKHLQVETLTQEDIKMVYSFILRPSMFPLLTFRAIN
pIC50: −log10 of the molar value.
Some compounds, each annotated with its measured pIC50.
readoutKind: pIC50

| compound | modifier | experimentalValue |
| --- | --- | --- |
| O=C(Nc1cccnc1)c1ccc(Cl)cc1F | < | 5.52 |
| CC1Cc2cc(Cl)ccc2C(=O)N1c1cccnc1 (stereo unspecified) | < | 5.00 |
| CCC(=O)N[C@@H]1CCCc2c1cncc2N1C(=O)c2ccc(Cl)cc2[C@H]1C | = | 5.03 |
| CC(=O)N[C@@H]1CCCc2c1cncc2N1C(=O)c2ccc(Cl)cc2[C@@H]1C | = | 7.09 |
| CC[C@@H]1c2cc(Cl)ccc2C(=O)N1c1cncc2c1CCC[C@H]2NC(C)=O | = | 6.48 |
| CC1c2cc(Cl)ccc2C(=O)N1c1cccnc1 (stereo unspecified) | = | 5.90 |
